# SUBJECT_OF_TEST: N-terminally GST-tagged human full length recombinant Mps-1 kinase (Homo sapiens)
# Construct: N-terminally GST-tagged human full length recombinant Mps-1 kinase; purchased Invitrogen, Karslruhe, Germany PV4071
# MEASUREMENT_DESCRIPTION: Mps-1 kinase assay (TR-FRET)
# Type: biochemical
# ASSAY_SETUP: Mps1 IC50 [nM], 10 μM ATP, 1 μM peptide substrate, 60 min at 22° C.
OBSERVABLE: IC50 (nM)

Look over these answered cases.
Request: IC50 for Cc1c[nH]c(Sc2cc(NCC(C)(C)O)c3ncc(-c4ccc(C(=O)NC5CC5)c(C)c4)n3n2)n1 [Example 317] ?
Result: 7.4

Request: And the next one, c1cc(-c2cc(NC[C@@H]3CCCO3)c3ncc(-c4ccc(-c5cnc(C6CC6)[nH]5)cc4)n3n2)ccn1 [Example 4] ?
Result: 20.6

Request: And the next one, Cc1cc(-c2cnc3c(NCCC(F)(F)F)cc(Sc4ccccc4F)nn23)ccc1C(=O)NC1CC1 [Example 268] ?
Result: 0.2

Request: And the next one, CNC(=O)c1ccc(-c2cnc3c(NCC(C)C)cc(Cl)nn23)cc1 [Example 178] ?
Result: 172

Request: And the next one, Cc1cc(-c2cnc3c(NCC4CCSCC4)cc(Oc4ccc(Cl)c(F)c4)nn23)ccc1C(=O)NC1CC1 [Example 291] ?
Result: 0.6

I. Cc1cc(-c2cnc3c(NCC(C)(C)O)cc(Sc4cc(F)ccc4F)nn23)ccc1C(=O)NC1CC1 [Example 248]
II. Cc1cc(-c2cnc3c(NCCC(F)(F)F)cc(-c4ccccc4CO)nn23)ccc1C(=O)NC1CC1 [Example 20]
Request: Please indicate which entry, I or II , has the lower recorded IC50 value. # respond with the chosen item's label
Result: I
(I: 0.5 nM, II: 1.2 nM)

###

# SUBJECT_OF_TEST: N-terminally GST-tagged human full length recombinant Mps-1 kinase (Homo sapiens, UniProt P33981)
# Construct: N-terminally GST-tagged human full length recombinant Mps-1 kinase; purchased Invitrogen, Karslruhe, Germany PV4071
# Sequence (P33981 whole entry): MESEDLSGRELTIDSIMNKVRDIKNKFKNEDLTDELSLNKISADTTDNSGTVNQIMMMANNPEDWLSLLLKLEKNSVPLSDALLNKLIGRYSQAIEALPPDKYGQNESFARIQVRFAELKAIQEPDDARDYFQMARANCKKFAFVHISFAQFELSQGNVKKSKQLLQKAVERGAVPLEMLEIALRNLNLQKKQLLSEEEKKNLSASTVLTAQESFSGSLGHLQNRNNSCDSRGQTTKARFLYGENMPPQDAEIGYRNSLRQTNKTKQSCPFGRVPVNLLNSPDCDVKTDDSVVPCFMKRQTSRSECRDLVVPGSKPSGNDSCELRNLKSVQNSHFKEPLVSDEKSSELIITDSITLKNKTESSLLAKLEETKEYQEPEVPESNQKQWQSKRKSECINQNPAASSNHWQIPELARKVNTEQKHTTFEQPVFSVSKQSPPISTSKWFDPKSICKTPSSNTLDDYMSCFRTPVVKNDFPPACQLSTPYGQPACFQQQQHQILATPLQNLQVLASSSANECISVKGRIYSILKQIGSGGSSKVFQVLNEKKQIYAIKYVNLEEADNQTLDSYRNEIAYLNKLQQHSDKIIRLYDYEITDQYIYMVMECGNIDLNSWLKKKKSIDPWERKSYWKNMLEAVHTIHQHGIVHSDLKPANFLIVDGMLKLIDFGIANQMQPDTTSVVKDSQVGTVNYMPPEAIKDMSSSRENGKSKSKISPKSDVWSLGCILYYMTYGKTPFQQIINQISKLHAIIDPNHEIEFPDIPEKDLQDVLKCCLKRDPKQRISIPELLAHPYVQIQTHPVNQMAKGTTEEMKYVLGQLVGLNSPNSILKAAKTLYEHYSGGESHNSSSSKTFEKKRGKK
# MEASUREMENT_DESCRIPTION: Mps-1 kinase assay (TR-FRET)
# Assay type: biochemical
# ASSAY_SETUP: Mps1 IC50 [nM], 10 μM ATP, 1 μM peptide substrate, 60 min at 22° C.
OBSERVABLE: IC50 (nM)

Look over these answered cases.
Request: IC50 for Cc1cc(-c2cnc3c(NCC(C)(C)O)cc(Oc4cccc(F)c4F)nn23)ccc1C(=O)NC1CC1 [Example 92] ?
Result: 0.2

Request: And the next one, c1cc(-c2cc(NC[C@H]3CCCO3)c3ncc(-c4ccc(-c5cnc(C6CC6)[nH]5)cc4)n3n2)ccn1 [Example 5] ?
Result: 13.3

Request: And the next one, Cc1cc(F)ccc1Sc1cc(NCC(C)(C)O)c2ncc(-c3ccc(C(=O)NC4CC4)c(C)c3)n2n1 [Example 69] ?
Result: 1

Request: And the next one, CNc1ccccc1Oc1cc(NC)c2ncc(-c3ccc(C(=O)NC4CC4)c(C)c3)n2n1 [Example 531] ?
Result: 14.8

Request: And the next one, Cc1cc(-c2cnc3c(NCCc4nnn[nH]4)cc(Oc4cccc(F)c4)nn23)ccc1C(=O)NC1CC1 [Example 511] ?
Result: 0.3

Request: And the next one, CC(C)CNc1cc(-c2cccc3cnccc23)nn2c(-c3ccc(C(=O)NC4CC4)cc3)cnc12 [Example 118] ?
Result: 4.3

a. Cc1cc(-c2cnc3c(NCC(C)(C)O)cc(Sc4ccc(O)cc4)nn23)ccc1C(=O)NC1CC1 [Example 60A]
b. Cc1ccc(O)cc1Nc1cc(NCCC(F)(F)F)c2ncc(-c3ccc(C(=O)NC4CC4)c(C)c3)n2n1 [Example 443]
Request: Please indicate which entry, a or b , has the lower recorded IC50 value. # respond with the chosen item's label
Result: b

P. CC(C)CNc1cc(-c2ccc(C(=O)N(C)C)cc2)nn2c(-c3ccc(C(=O)NC4CC4)cc3)cnc12 [Example 109]
Q. CC(C)(O)CNc1cc(Sc2cccc(F)c2)nn2c(-c3ccc(C(=O)NC4CC4)cc3O)cnc12 [Example 62A]
R. CC(C)CNc1cc(-c2ccc(-c3ccccc3)cc2)nn2c(-c3ccc(C(=O)NC4CC4)cc3)cnc12 [Example 130]
Request: Please give the order of these compounds when sorted by IC50, largest value leading. Return value: ordered labels per request.
Result: R, P, Q
(R: 5.9 nM, P: 2.1 nM, Q: 0.2 nM)

1. Cc1cc(-c2cnc3c(NCC4CNC4)cc(-c4ccccc4CO)nn23)ccc1C(=O)NC1CC1 [Example 338]
2. Cc1cc(-c2cnc3c(NCCC(F)(F)F)cc(Sc4cnccn4)nn23)ccc1C(=O)NC1CC1 [Example 420]
Request: Please indicate which entry, 1 or 2 , has the lower recorded IC50 value. # respond with the chosen item's label
Result: 2
(2: 2.8 nM, 1: 83.9 nM)

1. Cc1cc(Nc2cc(NCC(C)(C)O)c3ncc(-c4ccc(C(=O)NC5CC5)c(C)c4)n3n2)ccc1F [Example 382]
2. Cc1cc(-c2cnc3c(NCC(C)(C)O)cc(Sc4ccncc4)nn23)ccc1C(=O)NC1CC1 [Example 333]
Request: Please indicate which entry, 1 or 2 , has the lower recorded IC50 value. # respond with the chosen item's label
Result: 1
(1: 1.2 nM, 2: 9.5 nM)

I. Cc1cc(-c2cnc3c(NCC(C)(C)O)cc(Oc4ccc(Cl)cc4)nn23)ccc1C(=O)NC1CC1 [Example 90]
II. Cc1cc(-c2cnc3c(NCCCN)cc(Oc4cccc(F)c4)nn23)ccc1C(=O)NC1CC1 [Example 546]
III. Cc1cc(-c2cnc3c(NCCN4CCOCC4)cc(N(C)c4ccccc4O)nn23)ccc1C(=O)NC1CC1 [Example 539]
Request: Ordering: ascending IC50. Return value: ordered labels per request.
Result: II, III, I
(II: 0.1 nM, III: 0.2 nM, I: 0.5 nM)

A. COc1cccc(Nc2cc(NCC(C)(C)O)c3ncc(-c4ccc(C(=O)NC5CC5)c(C)c4)n3n2)c1C [Example 398]
B. CNc1ccccc1Oc1cc(NCCC(F)(F)F)c2ncc(-c3ccc(C(=O)NC4CC4)c(C)c3)n2n1 [Example 389]
Request: IC50 comparison. Which is larger, A or B ? # respond with the chosen item's label
Result: A
(A: 0.4 nM, B: 0.1 nM)

I. Cc1cc(-c2cnc3c(NCC(C)(C)O)cc(Sc4cccc(C(C)C)c4)nn23)ccc1C(=O)NC1CC1 [Example 273]
II. Cc1cc(-c2cnc3c(NCCC(F)(F)F)cc(Nc4cccc(F)c4)nn23)ccc1C(=O)NC1CC1 [Example 324]
III. Cc1cc(-c2cnc3c(NCCC(F)(F)F)cc(Oc4ccc5ncccc5c4)nn23)ccc1C(=O)NC1CC1 [Example 169]
IV. Cc1ccc(Cl)cc1Nc1cc(NCCCC(F)(F)F)c2ncc(-c3ccc(C(=O)NC4CC4)c(C)c3)n2n1 [Example 451]
Request: Please give the order of these compounds when sorted by IC50, largest value leading. Return value: ordered labels per request.
Result: IV, I, II, III

I. Cc1cc(-c2cnc3c(NCCC(F)(F)F)cc(Sc4cccc(F)c4C)nn23)ccc1C(=O)NC1CC1 [Example 387]
II. Cc1cc(-c2cnc3c(NCC(C)(C)O)cc(C4=CCOCC4)nn23)ccc1C(=O)NC1CC1 [Example 166]
Request: IC50 comparison. Which is larger, I or II ? # respond with the chosen item's label
Result: II
(II: 5.3 nM, I: 0.3 nM)

src = patent US9255100B2
